Test system: S. aureus BX-1633
MEASUREMENT LABEL: MIC (µg/mL)
Answers are plain numbers, in µg/mL.

Solved cases below.
CCN1CCN(C(=O)N[C@H](C(=O)N[C@@H]2C(=O)N3[C@@H]2SC(C)(C)[C@@H]3C(=O)O)c2ccc(O)c(O)c2)C(=O)C1=O :: 12.5
CCN1CCN(C(=O)N[C@@H](C(=O)N[C@@H]2C(=O)N3[C@@H]2SC(C)(C)[C@@H]3C(=O)O)c2ccccc2)C(=O)C1=O [piperacillin, reference compound] :: 3.1
CCN1CCN(C(=O)NC(C(=O)N[C@@H]2C(=O)N3[C@@H]2SC(C)(C)[C@@H]3C(=O)O)c2ccc(O)c(O)c2)C(=O)C1=O (mixture of isomers) :: 12.5

Give MIC for each of the items listed below.
1. CC1(C)S[C@@H]2[C@H](NC(=O)C(C(=O)O)c3ccccc3)C(=O)N2[C@H]1C(=O)O (some centres unmarked) [carbenicillin, reference compound]
2. CCN1CCN(C(=O)N[C@@H](C(=O)N[C@@H]2C(=O)N3[C@@H]2SC(C)(C)[C@@H]3C(=O)O)c2ccc(O)c(O)c2)C(=O)C1=O

Result:
3.1
12.5
